Source listed as patent US9447038B2.

IC50 reference
# System name: UniProt:P49682
# Assay protocol: 125I-CXCL10 competition radioligand binding assay
# Recorded conditions: displacement of 125I-CXCL10 from membranes of CHO cells expressing human recombinant CXCR3-A

Molecule: CCCN(Cc1ccc(OCCN2C(=O)CCC2=O)c(Cl)c1)C(CC(=O)O)c1ccc(Cl)c(F)c1 (stereo not shown) [Example 105]
System name: UniProt:P49682
Measurement unit: nM
IC50: 211
--
Molecule: CCCCN(Cc1ccc(OCCN2C(=O)CCC2=O)c(OC)c1)C(CC(=O)O)c1ccc(Cl)c(Cl)c1 (stereo not shown) [Example 48]
System name: UniProt:P49682
Measurement unit: nM
IC50: 61
--
Molecule: CCCN(Cc1ccc(CCCN2C(=O)CCC2=O)c(OC)c1)C(CC(=O)O)c1ccc(Cl)cc1 (stereo not shown) [Example 133]
System name: UniProt:P49682
Measurement unit: nM
IC50: 177
--
Molecule: CCCN(Cc1ccc(OCCN2C(=O)CCC2=O)c(C)c1)C(CC(=O)O)c1ccc(Cl)c(F)c1 (stereo not shown) [Example 75]
System name: UniProt:P49682
Measurement unit: nM
IC50: 25
--
Molecule: O=C(O)CC(c1ccc(Cl)c(F)c1)N(Cc1ccc(OCCN2C(=O)CCC2=O)c(F)c1)CC1CCCCC1 (stereo not shown) [Example 61]
System name: UniProt:P49682
Measurement unit: nM
IC50: 334
--
Molecule: CCCN(Cc1ccc(SCCN2C(=O)CCC2=O)c(OC)c1)C(CC(=O)O)c1ccc(Cl)c(Cl)c1 (stereo not shown) [Example 192]
System name: UniProt:P49682
Measurement unit: nM
IC50: 55
--
Molecule: Cc1cc(CN(CC(C)C)C(CC(=O)O)c2ccc(Cl)cc2)ccc1CCCN1C(=O)CCC1=O (stereo not shown) [Example 137]
System name: UniProt:P49682
Measurement unit: nM
IC50: 240

###

# System name: human CXCR3-A receptor (Homo sapiens (Human))
# Assay protocol: 125I-CXCL10 competition radioligand binding assay
# Recorded conditions: displacement of 125I-CXCL10 from membranes of CHO cells expressing human recombinant CXCR3-A
Reported metric: IC50 (nM)

Molecule: COc1cc(CN(CC2CCCC2)C(CC(=O)O)c2ccc3c(c2)CCO3)ccc1OCCN1C(=O)CCC1=O (stereo not drawn)
Measured: 56
//
Molecule: COc1cc(CN(CC2CCCC2)C(CC(=O)O)c2ccc(Cl)cc2Cl)ccc1OCCN1C(=O)CCC1=O (stereo not drawn)
Measured: 120
//
Molecule: Cc1cc(CN(CC2CCCCC2)C(CC(=O)O)c2ccc3c(c2)CCO3)ccc1CCCN1C(=O)CCC1=O (stereo not drawn)
Measured: 211
//
Molecule: COc1cc(CN(CC2CCCC2)C2c3ccc(Cl)cc3CC2C(=O)O)ccc1OCCN1C(=O)CCC1=O (stereo not drawn)
Measured: 389
//
Molecule: CCc1cc(CN(CC2CCCC2)C(CC(=O)O)c2ccc(Cl)c(F)c2)ccc1OCCN1C(=O)CCC1=O (stereo not drawn)
Measured: 71
//
Molecule: COc1cc(CN(CC2CC2)[C@@H](C(=O)O)c2ccc(Cl)c(Cl)c2)ccc1OCCN1C(=O)CCC1=O
Measured: 420
//
Molecule: CCc1cc(CN(CC(C)C)C(CC(=O)O)c2ccc(Cl)cc2)ccc1OCCN1C(=O)CCC1=O (stereo not drawn)
Measured: 12
//
Molecule: Cc1cc(CN(CC2CCCC2)C(CC(=O)O)c2ccc3c(c2)CCO3)ccc1OCCn1c(=O)ccn(C)c1=O (stereo not drawn)
Measured: 81
//
Molecule: CCc1cc(CN(CC2CC2)C(CC(=O)O)c2ccc(Cl)c(Cl)c2)ccc1OCCN1C(=O)CCC1=O (stereo not drawn)
Measured: 78
//
Molecule: CCCN(Cc1ccc(OCCn2c(=O)ccn(C)c2=O)c(OC)c1)C(CC(=O)O)c1ccc(Cl)c(Cl)c1 (stereo not drawn)
Measured: 72
//
Molecule: CCCN(Cc1ccc(OCCN2C(=O)CCC2=O)c(CC)c1)C(CC(=O)O)c1ccc(Cl)cc1 (stereo not drawn)
Measured: 58
//
Molecule: COc1cc(CN(CC(C)C)C(CC(=O)O)c2ccc(Cl)cc2)ccc1CCCN1C(=O)CCC1=O (stereo not drawn)
Measured: 296
//
Molecule: CCCCN(Cc1ccc(OCCN2C(=O)CCC2=O)c(C)c1)C1c2ccc(Cl)cc2CC1C(=O)O (stereo not drawn)
Measured: 603
//
Molecule: COc1cc(CN(CC2CC2)C(CC(=O)O)c2ccc(Cl)cc2Cl)ccc1OCCn1c(=O)ccn(C)c1=O (stereo not drawn)
Measured: 120
//
Molecule: COc1cc(CN(CC2CCCCC2)C(CC(=O)O)c2ccc3c(c2)CCO3)ccc1OCCN1C(=O)CCC1=O (stereo not drawn)
Measured: 28

###

# System name: human CXCR3-A receptor (Homo sapiens (Human), UniProt P49682)
# Sequence (P49682 whole entry): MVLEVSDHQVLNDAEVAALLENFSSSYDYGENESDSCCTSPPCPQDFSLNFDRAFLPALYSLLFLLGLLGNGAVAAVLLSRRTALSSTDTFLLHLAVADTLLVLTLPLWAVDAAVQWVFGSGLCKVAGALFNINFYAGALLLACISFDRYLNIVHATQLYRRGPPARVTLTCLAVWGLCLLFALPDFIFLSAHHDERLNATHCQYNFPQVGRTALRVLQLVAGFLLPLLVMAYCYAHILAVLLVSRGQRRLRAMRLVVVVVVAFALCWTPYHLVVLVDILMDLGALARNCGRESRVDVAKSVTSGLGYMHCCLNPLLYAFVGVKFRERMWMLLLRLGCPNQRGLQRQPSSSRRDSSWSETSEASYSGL
# Assay protocol: 125I-CXCL10 competition radioligand binding assay
# Recorded conditions: displacement of 125I-CXCL10 from membranes of CHO cells expressing human recombinant CXCR3-A
pIC50: −log10 of the molar value.
pIC50 reference
Reported metric: pIC50

Compound: Cc1cc(CN(CC2CCCCC2)[C@@H](CC(=O)O)c2ccc(Cl)c(F)c2)ccc1OCCN1C(=O)CN(C)C1=O
Measured: 7.08
--
Compound: CCc1cc(CN(CC(C)C)C(CC(=O)O)c2ccc(Cl)c(F)c2)ccc1OCCN1C(=O)CCC1=O (stereo not shown)
Measured: 7.18
--
Compound: CCCN(Cc1ccc(OCCN2C(=O)CCC2=O)c(C)c1)C(CC(=O)O)c1ccc(C)cc1 (stereo not shown)
Measured: 6.74
--
Compound: O=C(O)CC(c1ccc(Cl)c(Cl)c1)N(Cc1ccc(OCCN2C(=O)CCC2=O)c(F)c1)CC1CCCC1 (stereo not shown)
Measured: 6.73
--
Compound: Cc1cc(CN(CC2CCC2)[C@@H](CC(=O)O)c2ccc(Cl)cc2)ccc1OCCN1C(=O)CCC1=O
Measured: 7.27
--
Compound: Cc1cc(CN(CC2CCCCC2)[C@H](CC(=O)O)c2ccc(Cl)cc2)ccc1OCCN1C(=O)CN(C)C1=O
Measured: 6.38
--
Compound: O=C(O)C[C@H](c1ccc(Cl)cc1)N(Cc1ccc(OCCN2C(=O)CCC2=O)c(F)c1)CC1CCC1
Measured: 6.53

###

# System name: human CXCR3-A receptor (Homo sapiens (Human), UniProt P49682)
# Assay protocol: 125I-CXCL10 competition radioligand binding assay
# Recorded conditions: displacement of 125I-CXCL10 from membranes of CHO cells expressing human recombinant CXCR3-A
pIC50: −log10 of the molar value.
pIC50 reference

Compound: CCCCN(Cc1ccc(OCCN2C(=O)CCC2=O)c(OC)c1)C(C(=O)O)c1ccc(Cl)cc1 (stereo not shown) [Example 184]
pIC50: 6.47

Compound: Cc1cc(CN(CC2CC2)C(CC(=O)O)c2ccc(Cl)c(F)c2)ccc1OCCN1C(=O)CCC1=O (stereo not shown) [Example 74]
pIC50: 7.47

Compound: CCc1cc(CN(CC(C)C)C(CC(=O)O)c2ccc(Cl)c(Cl)c2)ccc1OCCN1C(=O)CCC1=O (stereo not shown) [Example 98]
pIC50: 6.89

Compound: COc1cc(CN(CC2CCCC2)C(CC(=O)O)c2ccc(Cl)cc2)ccc1OCCN1C(=O)CCC1=O (stereo not shown) [Example 39]
pIC50: 7.15

###

# System name: human CXCR3-A receptor (Homo sapiens (Human), UniProt P49682)
# Assay protocol: 125I-CXCL10 competition radioligand binding assay;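 also: One-hour incubation of membranes with tracer, bound radioligand separated by glass fibre filtration, IC50 derived from four-parameter nonlinear fit of competition curves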
# Recorded conditions: displacement of 125I-CXCL10 from membranes of CHO cells expressing human recombinant CXCR3-A
Reported metric: IC50 (nM)

Compound: CCCN(Cc1ccc(OCCN2C(=O)CCC2=O)c(OC)c1)C(CC(=O)O)c1ccc(Cl)cc1 (centres unmarked) [Example 37]
System name: human CXCR3-A receptor (Homo sapiens (Human), UniProt P49682)
Measurement unit: nM
Measured: 20

Compound: COc1cc(CN(CC2CC2)C(CC(=O)O)c2ccc(Cl)c(Cl)c2)ccc1OCCn1c(=O)ccn(C)c1=O (centres unmarked) [Example 124]
System name: human CXCR3-A receptor (Homo sapiens (Human), UniProt P49682)
Measurement unit: nM
Measured: 30

Compound: CCCN(Cc1ccc(OCCN2C(=O)CCC2=O)c(OC)c1)C(CC(=O)O)c1ccc(Cl)c(F)c1 (centres unmarked) [Example 41]
System name: human CXCR3-A receptor (Homo sapiens (Human), UniProt P49682)
Measurement unit: nM
Measured: 107

Compound: COc1cc(CN(CC2CC2)C(CC(=O)O)c2ccc(Cl)c(Cl)c2)ccc1OCCN1C(=O)CCC1=O (centres unmarked) [Example 45]
System name: human CXCR3-A receptor (Homo sapiens (Human), UniProt P49682)
Measurement unit: nM
Measured: 66

Compound: CCc1cc(CN(CC2CC2)C(CC(=O)O)c2ccc(Cl)cc2)ccc1OCCN1C(=O)CCC1=O (centres unmarked) [Example 84]
System name: human CXCR3-A receptor (Homo sapiens (Human), UniProt P49682)
Measurement unit: nM
Measured: 45

Compound: CCc1cc(CN(CC2CCCC2)C(CC(=O)O)c2ccc(Cl)c(Cl)c2)ccc1OCCN1C(=O)CCC1=O (centres unmarked) [Example 100]
System name: human CXCR3-A receptor (Homo sapiens (Human), UniProt P49682)
Measurement unit: nM
Measured: 464

Compound: Cc1cc(CN(CC2CCCCC2)C(CC(=O)O)c2ccc(Cl)c(F)c2)ccc1OCCN1C(=O)CCC1=O (centres unmarked) [Example 78]
System name: human CXCR3-A receptor (Homo sapiens (Human), UniProt P49682)
Measurement unit: nM
Measured: 72

Compound: COc1cc(CN(CC2CCCC2)C(CC(=O)O)c2ccc3c(c2)CCO3)ccc1OCCn1c(=O)ccn(C)c1=O (centres unmarked) [Example 127]
System name: human CXCR3-A receptor (Homo sapiens (Human), UniProt P49682)
Measurement unit: nM
Measured: 38

Compound: Cc1cc(CN(CCC(F)(F)F)C(CC(=O)O)c2ccc(Cl)cc2)ccc1OCCn1c(=O)ccn(C)c1=O (centres unmarked) [Example 129]
System name: human CXCR3-A receptor (Homo sapiens (Human), UniProt P49682)
Measurement unit: nM
Measured: 2150

Compound: CCCCN(Cc1ccc(CCCN2C(=O)CCC2=O)c(OC)c1)C(CC(=O)O)c1ccc(Cl)cc1 (centres unmarked) [Example 135]
System name: human CXCR3-A receptor (Homo sapiens (Human), UniProt P49682)
Measurement unit: nM
Measured: 116

Compound: COc1cc(CN(C2CCC2)C(CC(=O)O)c2ccc(Cl)cc2)ccc1CCCN1C(=O)CCC1=O (centres unmarked) [Example 138]
System name: human CXCR3-A receptor (Homo sapiens (Human), UniProt P49682)
Measurement unit: nM
Measured: 190

Compound: CCN(Cc1ccc(OCCn2c(=O)ccn(C)c2=O)c(C)c1)C(CC(=O)O)c1ccc2c(c1)CCO2 (centres unmarked) [Example 154]
System name: human CXCR3-A receptor (Homo sapiens (Human), UniProt P49682)
Measurement unit: nM
Measured: 58

Compound: CCN(Cc1ccc(OCCn2c(=O)ccn(C)c2=O)c(OC)c1)C(c1ccc(Cl)cc1)C(C)C(=O)O (centres unmarked) [Example 153]
System name: human CXCR3-A receptor (Homo sapiens (Human), UniProt P49682)
Measurement unit: nM
Measured: 635

Compound: CCCCN(Cc1ccc(OCCN2C(=O)CCC2=O)c(C)c1)C(CC(=O)O)c1ccc(Cl)cc1Cl (centres unmarked) [Example 164]
System name: human CXCR3-A receptor (Homo sapiens (Human), UniProt P49682)
Measurement unit: nM
Measured: 133

Compound: CCCCN(Cc1ccc(OCCN2C(=O)CCC2=O)c(C)c1)C(CC(=O)O)c1ccc(Cl)c(F)c1 (centres unmarked) [Example 76]
System name: human CXCR3-A receptor (Homo sapiens (Human), UniProt P49682)
Measurement unit: nM
Measured: 54

Compound: COc1cc(CN(CC2CCCC2)C(CC(=O)O)c2ccc(C(F)(F)F)cc2)ccc1OCCN1C(=O)CCC1=O (centres unmarked) [Example 180]
System name: human CXCR3-A receptor (Homo sapiens (Human), UniProt P49682)
Measurement unit: nM
Measured: 198

Compound: CCCN(Cc1ccc(OCCN2C(=O)CCC2=O)c(F)c1)[C@H](CC(=O)O)c1ccc(Cl)cc1 [Example 52]
System name: human CXCR3-A receptor (Homo sapiens (Human), UniProt P49682)
Measurement unit: nM
Measured: 990
